- procedure.summary: Bioavailability in rat
- Assay type: ADME, organism-based
- condition: in vivo
assay.metric: bioavailability (%)
Give bare numbers, in %.

IN: # input compound: COc1ccc(-c2ccc(OCc3cc(C(=O)[N-]S(=O)(=O)c4ccccc4C)oc3C)cc2)nc1.[Na+] ; wanted: its bioavailability
OUT: 84

* * *

- procedure.summary: Half life in po dosed rat
- Assay type: ADME, organism-based
- condition: in vivo
assay.metric: half-life (h)
Give bare numbers, in h.

IN: # input molecule: COc1ccc(-c2ccc(OCc3cc(C(=O)[N-]S(=O)(=O)c4ccccc4C)oc3C)cc2)nc1.[Na+] ; wanted: its half-life
OUT: 2.3

// provenance: ChEMBL document CHEMBL3259671
